Assay: Confirmatory growth inhibition assay, mycobacterium tuberculosis h37rv, with cytotoxicity (AID 1332)
Conditions: M. tuberculosis H37Rv growth inhibition
Hit rate of the full screen: of about 1,100 compounds, about 170 (15%) were called active. How the calls were made is not given here. Not all results are given here.
Log the outcome using a class from 1 = active, 0 = inactive

Request: Lab log entry: Cc1onc(-c2c(F)cccc2Cl)c1C(=O)N[C@@H]1C(=O)N2C(C(=O)O)C(C)(C)S[C@H]12 (stereo not given in full) — outcome as called in the assay?
Response: 0

Request: Lab log entry: Cc1noc(NS(=O)(=O)c2ccc(N)cc2)c1C — outcome as called in the assay?
Response: 1

Request: Lab log entry: Nc1ccc(S(=O)(=O)Nc2ccc(Cl)nn2)cc1 — outcome as called in the assay?
Response: 1

Request: Lab log entry: CC(C)(C)NC[C@@H](O)COc1cccc2c1CCCC2=O — outcome as called in the assay?
Response: 0

Request: Lab log entry: Cc1ccnc(NS(=O)(=O)c2ccc(N)cc2)n1 — outcome as called in the assay?
Response: 0

Request: Lab log entry: COc1cc(-c2ccc(N=Nc3ccc4c(S(=O)(=O)O)cc(S(=O)(=O)O)c(N)c4c3O)c(OC)c2)ccc1N=Nc1ccc2c(S(=O)(=O)O)cc(S(=O)(=O)O)c(N)c2c1O — outcome as called in the assay?
Response: 0

Request: Lab log entry: Cc1cc(C)nc(NS(=O)(=O)c2ccc(N)cc2)n1 — outcome as called in the assay?
Response: 0

Request: Lab log entry: Nc1ccc(S(=O)(=O)NC(=O)c2ccccc2)cc1 — outcome as called in the assay?
Response: 0

Request: Lab log entry: C/C(=C(/CCO)SSCC1CCCO1)N(C=O)Cc1cnc(C)nc1N (stereo not given) — outcome as called in the assay?
Response: 0

Request: Lab log entry: C[C@@H]1CC[C@H]2[C@@H](C)C(=O)O[C@@H]3OC4(C)CC[C@@H]1[C@]32OO4 — outcome as called in the assay?
Response: 0

###

Kindly supply the reported IC50 values for the records listed here.
Assay: Confirmatory growth inhibition assay, mycobacterium tuberculosis h37rv, with cytotoxicity (AID 1332);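 on IC50: bacteria incubated 7 days before adding Alamar blue readout reagent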
Details: M. tuberculosis H37Rv growth inhibition; measured here: IC50 H37Rv replicates
The whole screen tested about 1,100 compounds, of which about 170 (15%) were called active. The list is a sample of the results. Non-standard residues stand in square brackets, D forms with d. Residues, ends and D or L forms follow the SMILES beside them. *: point of attachment. Sta = CC(C)C[C@H](N)[C@@H](O)CC(=O)O; Isovaleryl = CC(C)CC(=O)*

Request: Any idea what IC50 was measured for Cc1cc(CC(=O)O)n(C)c1C(=O)c1ccc(Cl)cc1 ?
Response: > 20 µg/mL

Request: Any idea what IC50 was measured for CCc1cccc(CC)c1NC(=O)CN(CC(=O)O)CC(=O)O ?
Response: > 20 µg/mL

Request: Any idea what IC50 was measured for Cc1noc(NS(=O)(=O)c2ccc(N)cc2)c1C ?
Response: 8.76 µg/mL

Request: Any idea what IC50 was measured for CC(=O)NS(=O)(=O)c1ccc(N)cc1 ?
Response: > 20 µg/mL

Request: Any idea what IC50 was measured for OCCN1CCN(CC/C=C2/c3ccccc3Sc3ccc(Cl)cc32)CC1 ?
Response: 9.26 µg/mL

Request: Any idea what IC50 was measured for NC[C@@H]1O[C@H](O[C@H]2[C@@H](O)[C@H](O[C@@H]3[C@@H](O)[C@H](N)C[C@H](N)[C@H]3O[C@H]3O[C@H](CN)[C@@H](O)[C@H](O)[C@H]3N)O[C@@H]2CO)[C@H](N)[C@@H](O)[C@@H]1O ?
Response: > 20 µg/mL

Request: Any idea what IC50 was measured for O=c1cc(-c2ccc(O)cc2)oc2c(C3O[C@H](CO)[C@@H](O)[C@H](O)[C@H]3O)c(O)cc(O)c12 (some centres not stated) ?
Response: > 20 µg/mL

Request: Any idea what IC50 was measured for CC(C)(C)NCC(O)COc1cccc2c1CC(O)C(O)C2 (configuration not stated) ?
Response: > 20 µg/mL

Request: Any idea what IC50 was measured for CC[C@@H](C(=O)[C@@H](C)[C@@H](O)[C@H](C)CCc1ccc(C)c(O)c1C(=O)O)[C@H]1O[C@](CC)([C@H]2CC[C@](O)(CC)[C@H](C)O2)C[C@@H]1C ?
Response: 6.19 µg/mL

Request: Any idea what IC50 was measured for CC(C(=O)O)c1ccc(C(=O)c2ccccc2)s1 (configuration not stated) ?
Response: > 20 µg/mL

Request: Any idea what IC50 was measured for Cc1cc2c(cc1S(N)(=O)=O)S(=O)(=O)CCC2 ?
Response: > 20 µg/mL

Request: Any idea what IC50 was measured for Cc1cc(C)nc(NS(=O)(=O)c2ccc(N)cc2)n1 ?
Response: > 20 µg/mL

Request: Any idea what IC50 was measured for NC[C@H]1O[C@H](OC2[C@@H](N)C[C@@H](N)[C@H](O)[C@H]2O[C@@H]2O[C@H](CO)[C@@H](O)[C@H]2O)[C@H](N)[C@@H](O)[C@@H]1O (some centres not stated) ?
Response: > 20 µg/mL

Request: Any idea what IC50 was measured for C[C@H](O)C(=O)Nc1c(I)c(C(=O)NC(CO)CO)c(I)c(C(=O)NC(CO)CO)c1I ?
Response: > 20 µg/mL

Request: Any idea what IC50 was measured for O=C1C(CCS(=O)c2ccccc2)C(=O)N(c2ccccc2)N1c1ccccc1 (configuration not stated) ?
Response: > 20 µg/mL

Request: Any idea what IC50 was measured for NC(N)=NCC1COC2(CCCCC2)O1 (configuration not stated) ?
Response: > 20 µg/mL

Request: Any idea what IC50 was measured for C[C@@H]1CCC[C@H](C)N1 ?
Response: > 20 µg/mL

Request: Any idea what IC50 was measured for COc1ccc([C@@H]2CC(=O)c3c(O)cc(O)cc3O2)cc1O ?
Response: > 20 µg/mL

Request: Any idea what IC50 was measured for CCC(=O)OCC(=O)[C@@]1(OC(=O)CC)[C@@H](C)C[C@H]2[C@@H]3CCC4=CC(=O)C=C[C@]4(C)[C@@]3(Cl)[C@@H](O)C[C@@]21C ?
Response: > 20 µg/mL

Request: Any idea what IC50 was measured for CCN(CC)CCOC(=O)C(c1ccccc1)c1ccccc1 ?
Response: > 20 µg/mL

Request: Any idea what IC50 was measured for C[C@@H]1NC(=O)NC1=O ?
Response: > 20 µg/mL

Request: Any idea what IC50 was measured for CN(Cc1cnc2nc(N)nc(N)c2n1)c1ccc(C(=O)NC(CCC(=O)O)C(=O)O)cc1 (configuration not stated) ?
Response: > 20 µg/mL

Request: Any idea what IC50 was measured for CCCNC(C)C(=O)Nc1c(C)csc1C(=O)OC (configuration not stated) ?
Response: > 20 µg/mL

Request: Any idea what IC50 was measured for C[C@H](N)[C@H](O)c1cccc(O)c1 ?
Response: > 20 µg/mL

Request: Any idea what IC50 was measured for CN1CCC(=C2c3ccccc3CCc3sccc32)CC1 ?
Response: > 20 µg/mL

Request: Any idea what IC50 was measured for Fc1ccc([C@@H]2CCNC[C@H]2COc2ccc3c(c2)OCO3)cc1 ?
Response: 13.1 µg/mL

Request: Any idea what IC50 was measured for CC(=O)Oc1ccc(C(c2ccc(OC(C)=O)cc2)c2ccccn2)cc1 ?
Response: > 20 µg/mL

Request: Any idea what IC50 was measured for NC[C@@H]1O[C@H](O[C@H]2[C@@H](O)[C@H](O[C@@H]3[C@@H](O)[C@H](N)C[C@H](N)[C@H]3OC3O[C@H](CO)[C@@H](O)[C@H](O)[C@H]3N)O[C@@H]2CO)[C@H](N)[C@@H](O)[C@@H]1O (some centres not stated) ?
Response: 19.8 µg/mL

Request: Any idea what IC50 was measured for CCc1nc(N)nc(N)c1-c1ccc(Cl)cc1 ?
Response: 7.67 µg/mL

Request: Any idea what IC50 was measured for CC(C)CC(=O)N[C@H](C(=O)N[C@H](C(=O)N[C@@H](CC(C)C)[C@@H](O)CC(=O)N[C@@H](C)C(=O)N[C@@H](CC(C)C)[C@@H](O)CC(=O)O)C(C)C)C(C)C (Isovaleryl-VV[Sta]A[Sta]-OH) ?
Response: > 20 µg/mL

Request: Any idea what IC50 was measured for COc1cc(-c2ccc(N=Nc3ccc4c(S(=O)(=O)O)cc(S(=O)(=O)O)c(N)c4c3O)c(OC)c2)ccc1N=Nc1ccc2c(S(=O)(=O)O)cc(S(=O)(=O)O)c(N)c2c1O ?
Response: > 20 µg/mL

Request: Any idea what IC50 was measured for CC[N+](CC)(CC(=O)Nc1c(C)cccc1C)Cc1ccccc1 ?
Response: > 20 µg/mL

Request: Any idea what IC50 was measured for Nc1nc2c(c(=O)[nH]1)N(C=O)C(CNc1ccc(C(=O)N[C@@H](CCC(=O)O)C(=O)O)cc1)CN2 (some centres not stated) ?
Response: > 20 µg/mL

Request: Any idea what IC50 was measured for CC(C)(C)NC(=O)[C@@H]1C[C@@H]2CCCC[C@@H]2CN1C[C@@H](O)[C@H](Cc1ccccc1)NC(=O)[C@H](CC(N)=O)NC(=O)c1ccc2ccccc2n1 ?
Response: 17.3 µg/mL

Request: Any idea what IC50 was measured for CC(=O)c1ccc2c(c1)N(CCCN1CCC(CCO)CC1)c1ccccc1S2 ?
Response: > 20 µg/mL

Request: Any idea what IC50 was measured for Cc1ccnc(NS(=O)(=O)c2ccc(N)cc2)n1 ?
Response: > 20 µg/mL

Request: Any idea what IC50 was measured for CN1CC[C@]23c4ccccc4N[C@H]1[C@]21CCN(C)[C@H]3Nc2ccccc21 ?
Response: > 20 µg/mL

Data provenance is PubChem BioAssay AID1332.
